System: strain TA97A
Experiment: Ames mutagenicity evaluation, strain TA97A
Format: cell-based
Details: results to date
assay-readout: Ames mutagenicity

[
  {
    "molecule": "c1ccc(OCCCCCCCCCCOc2ccccc2CC2CO2)c(CC2CO2)c1 (stereo not shown)",
    "study-system": "strain TA97A",
    "observed": "negative"
  },
  {
    "molecule": "c1ccc(OCCCCCOc2ccccc2CC2CO2)c(CC2CO2)c1 (stereo not shown)",
    "study-system": "strain TA97A",
    "observed": "negative"
  },
  {
    "molecule": "c1ccc(OCCCCCCOc2ccccc2CC2CO2)c(CC2CO2)c1 (stereo not shown)",
    "study-system": "strain TA97A",
    "observed": "negative"
  }
]
